test: Pharmacokinetics and oral bioavailability of D8.3.p1 and D10.1 in Balb/C female mice (PO, SQ, IV); format: in vivo; conditions: female, Balb/C, mouse, plasma, sc; D8.3.p1 SQ 5 mg/kg, mean n=3; read-out: Apparent clearance Cl/F
Where a SMILES comes first, the peptide text is derived from it. [ ]: non-standard residue; d: D form. dNMeL = CN[C@H](CC(C)C)C(=O)O
measure: CL/F (mL/min)
Output spec: scalar in mL/min, unitless text.

Given item CC[C@@H](C)[C@H]1NC(=O)[C@@H](CC(C)C)NC(=O)[C@@H](CC(C)C)N(C)C(=O)[C@@H]2CCCN2C(=O)[C@@H](C(C)C)NC(=O)[C@H](CC(C)C)NC(=O)[C@@H](CC(C)C)N(C)C(=O)[C@@H]2CCCN2C1=O [Design D8.3.p1, DLEU DVAL PRO *DLEU DLEU DILE PRO *DLEU] (cyclo(L[dV]P[dNMeL][dL][dI]P[dNMeL])) , the value recorded as its CL/F is 0.502
